assayed_system: RSV F protein (C-terminal truncated) (respiratory syncytial virus, UniProt P03420)
Sequence (P03420 26-524): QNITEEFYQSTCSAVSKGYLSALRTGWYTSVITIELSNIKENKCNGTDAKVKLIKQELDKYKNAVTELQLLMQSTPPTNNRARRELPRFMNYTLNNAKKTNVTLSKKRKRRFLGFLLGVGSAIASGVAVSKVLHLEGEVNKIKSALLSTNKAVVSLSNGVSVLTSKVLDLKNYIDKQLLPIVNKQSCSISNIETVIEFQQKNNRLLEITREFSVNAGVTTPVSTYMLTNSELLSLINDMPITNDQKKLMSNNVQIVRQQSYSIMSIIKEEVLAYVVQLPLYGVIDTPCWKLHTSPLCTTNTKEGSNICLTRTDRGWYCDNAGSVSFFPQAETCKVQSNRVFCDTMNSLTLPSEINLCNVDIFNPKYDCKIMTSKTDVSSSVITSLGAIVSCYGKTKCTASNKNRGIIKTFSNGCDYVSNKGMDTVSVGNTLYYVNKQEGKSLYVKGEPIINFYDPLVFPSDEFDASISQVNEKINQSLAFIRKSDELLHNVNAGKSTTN
method_summary: SPR
parameter: pKd
Conceptually, pKd converts a concentration in mol/L into minus its log10.

Input line: # lookup: pKd of CH1129 (M1129HuGamma1,Kappa) (antibody, V domains shown) VH: QVELQESGPGILQPSQTLSLTCSFSGFSLSTSGMSVGWIRQPSGEGLEWLADIWWDDKKDYNPSLKSRLTISKDTSSNQVFLKITGVDTADTATYYCARSMITNWYFDVWGAGTTVTVSS VL: DIQLTQSPAIMSASPGEKVTMTCSASSSVGYMHWYQQKSSTSPKLWIYDTSKLASGVPGRFSGSGSGNSYSLTISSIQAEDVATYYCFQGSGYPFTFGGGTKLEIK
Output line: 8.82
